target: AsPC-1 HiBiT-KRASG12D (Homo sapiens, UniProt P01116, G12D); construct: insert the HiBiT tag onto the N-terminus of one or more of the endogenous KRAS alleles; endogenous in cells; host or cells: AsPC-1 (ATCC CRL-1682), CRISPR-Cas9 knock-in clone, one tagged allele; experiment: HiBiT degradation assay (G12D), AsPC-1 HiBiT-KRASG12D cells; type: cell-based; conditions: AsPC-1 HiBiT-KRASG12D cells, 24 hours treatment, HiBiT luminescence
Sequence (P01116 1-188 isoform P01116-2 G12D): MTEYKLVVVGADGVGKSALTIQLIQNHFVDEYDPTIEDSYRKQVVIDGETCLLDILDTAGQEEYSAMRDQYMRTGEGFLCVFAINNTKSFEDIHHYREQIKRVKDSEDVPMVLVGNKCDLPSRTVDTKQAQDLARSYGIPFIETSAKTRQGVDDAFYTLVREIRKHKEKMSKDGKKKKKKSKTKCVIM

Molecule	DC50
CCc1cccc2cc(O)cc(-c3ncc4c(N5CC6CCC(C5)N6)nc(OC[C@@]56CCCN5[C@H](CN5CCC7(CC5)CN(c5cc([C@H](C(=O)N8C[C@H](O)C[C@H]8C(=O)N[C@@H](C)c8ccc(-c9scnc9C)cc8)C(C)C)on5)C7)CC6)nc4c3F)c12 [Compound 88]	< 600 nM
CCc1cccc2cc(O)cc(-c3ncc4c(N5CC6CCC(C5)N6)nc(OC[C@]56CCCN5[C@H](COC(=O)N5CCN(c7cc([C@H](C(=O)N8C[C@H](O)C[C@H]8C(=O)N[C@@H](C)c8ccc(-c9scnc9C)cc8)C(C)C)on7)[C@@H](C)C5)CC6)nc4c3F)c12 [Compound 123]	< 600 nM
CCc1cccc2cc(O)cc(-c3ncc4c(N5CC6CCC(C5)N6)nc(OC[C@@H]5CC[C@@H](COC(=O)N6CCN(c7cc([C@@H](C(=O)N8C[C@H](O)C[C@H]8C(=O)N[C@@H](C)c8ccc(-c9scnc9C)cc8)C(C)C)on7)C[C@@H]6C)N5C)nc4c3F)c12 [Compound 280]	600 to 1000 nM
C#Cc1c(F)ccc2cc(O)cc(-c3ncc4c(N5CC6CCC(C5)N6)nc(OCCN5CCC(F)(CN6CCN(c7cc([C@@H](C(=O)N8C[C@H](O)C[C@H]8C(=O)N[C@@H](C)c8ccc(-c9ccnn9C)cc8)C(C)C)on7)CC6)CC5)nc4c3F)c12 [Compound 171]	1000 to 3000 nM
CCc1cccc2cc(O)cc(-c3ncc4c(N5CC6CCC(C5)N6)nc(OCCN5CCC(F)(CN6CCN(c7cc([C@H](C(=O)N8C[C@H](O)C[C@H]8C(=O)N[C@@H](C)c8ccc(-c9scnc9C)cc8)C(C)C)on7)C[C@@H]6C)CC5)nc4c3F)c12 [Compound 214]	< 600 nM
CCc1cccc2cc(O)cc(-c3ncc4c(N5CC6CCC(C5)N6)nc(OCCN5CCC(OCC(=O)N[C@H](C(=O)N6C[C@H](O)C[C@H]6C(=O)N[C@@H](C)c6ccc(-c7scnc7C)cc6)C(C)(C)C)CC5)nc4c3F)c12 [Compound 12]	1000 to 3000 nM
C#Cc1c(F)ccc2cc(O)cc(-c3ncc4c(N5CC6CCC(C5)N6)nc(OCCN5CCC(C(C)(C)N6CCN(c7cc([C@H](C(=O)N8C[C@H](O)C[C@H]8C(=O)N[C@@H](C)c8ccc(-c9scnc9C)cc8)C(C)C)on7)CC6)CC5)nc4c3F)c12 [Compound 175]	< 600 nM
Cc1ncsc1-c1ccc([C@H](C)NC(=O)[C@@H]2C[C@@H](O)CN2C(=O)[C@@H](c2cc(N3CCN(C(=O)OC[C@H]4CC[C@@]5(COc6nc(N7CC8CCC(C7)N8)c7cnc(-c8cc(O)cc9ccccc89)c(F)c7n6)CCCN45)CC3)no2)C(C)C)cc1 [Compound 37]	< 600 nM
CCc1cccc2cc(O)cc(-c3ncc4c(N5CC6CCC(C5)N6)nc(O[C@H](C)CN5CCC6(CC5)CN(c5cc([C@H](C(=O)N7C[C@H](O)C[C@H]7C(=O)N[C@@H](C)c7ccc(-c8scnc8C)cc7)C(C)C)on5)C6)nc4c3F)c12 [Compound 25]	600 to 1000 nM
CCc1cccc2cc(O)cc(-c3ncc4c(N5CC6CCC(C5)N6)nc(OCCN5CCC(F)(CN6CCN(c7cc([C@H](C(=O)N8C[C@H](O)C[C@H]8C(=O)N[C@@H](C)c8ccc(-c9ccnn9C)cc8)C(C)C)on7)CC6)CC5)nc4c3F)c12 [Compound 199]	< 600 nM
CCc1cccc2cc(O)cc(-c3ncc4c(N5CC6CCC(C5)N6)nc(OCCN5CC(CC6CCN(c7cc([C@H](C(=O)N8C[C@H](O)C[C@H]8C(=O)N[C@@H](C)c8ccc(-c9scnc9C)cc8)C(C)C)on7)CC6)C5)nc4c3F)c12 [Compound 233]	< 600 nM
C#Cc1c(F)ccc2cc(O)cc(-c3ncc4c(N5CC6CCC(C5)N6)nc(OCCN5CCC(F)(COc6cc([C@@H](C(=O)N7C[C@H](O)C[C@H]7C(=O)N[C@@H](C)c7ccc(-c8scnc8C)cc7)C(C)C)on6)CC5)nc4c3F)c12 [Compound 154]	< 600 nM
Cc1ncsc1-c1ccc([C@H](C)NC(=O)[C@@H]2C[C@@H](O)CN2C(=O)[C@@H](c2cc(N3CCN(C(=O)OC[C@@H]4CC[C@@]5(COc6nc(N7CC8CCC(C7)N8)c7cc(Cl)c(-c8cc(O)cc9ccccc89)c(F)c7n6)CCCN45)CC3)no2)C(C)C)cc1 (relative stereo) [Compound 330]	< 600 nM
CCc1cccc2cc(O)cc(-c3ncc4c(N5CC6CCC(C5)N6)nc(OCCN5CCC6(CC5)CN(c5cc([C@H](C(=O)N7C[C@H](O)C[C@H]7C(=O)NCc7ccc(-c8scnc8C)cc7)C(C)C)on5)C6)nc4c3F)c12 (relative stereo) [Compound 98]	< 600 nM
CCc1cccc2cccc(-c3ncc4c(N5CC6CCC(C5)N6)nc(OC[C@@]56CCCN5[C@H](COc5cc([C@@H](C(=O)N7C[C@H](O)C[C@H]7C(=O)N[C@@H](C)c7ccc(-c8scnc8C)cc7)C(C)C)on5)CC6)nc4c3F)c12 [Compound 55]	> 3000 nM

Just for reference, patent US20250206732A1 is where these values come from.
